The reported measurements were obtained from patent US20070010671A1.

molecular target: MCH receptor (Homo sapiens, UniProt Q99705); experiment: High throughput functional screening FLIPR/FDSS6000: inhibition of MCH-evoked intracellular Ca2+ changes; assay type: cell-based; conditions: class by percent of control at 10^−7 M or by IC50; read-out: class
pIC50: −log10 of the molar value.
Measured Endpoint: pIC50

Below, each entry is followed by its recorded pIC50 result.
Molecule | Value Reported
COc1ccc(NC(=O)NC[C@H]2CC[C@@H](Nc3nc(N(C)C)c4ccccc4n3)CC2)cc1OC [Example 1018] | < 6.70
CN(C)c1nc(N[C@H]2CC[C@@H](NCc3ccc(Br)cc3OC(F)(F)F)C2)nc2ccccc12 [Example 1048] | < 6.70
CN(C)c1nc(N[C@H]2CC[C@@H](C(=O)NCc3ccccc3)CC2)nc2ccccc12 [Example 1135] | > 7.30
CN(C)c1nc(N[C@H]2CC[C@@H](NC(=O)CN(C)c3ccccc3)CC2)nc2ccccc12 [Example 1088] | > 7.30
CN(C)c1nc(N[C@H]2CC[C@@H](NC(=O)c3ccc(Oc4ccc(Br)cc4)nc3)CC2)nc2ccccc12 [Example 1061] | < 6.70
CN(C)c1nc(N[C@H]2CC[C@@H](C(=O)NC3c4ccccc4-c4ccccc43)CC2)nc2ccccc12 [Example 1194] | > 7.30

Asked: Given CN(C)c1nc(N[C@H]2CC[C@@H](NC(=O)[C@@H](O)c3ccccc3Cl)CC2)nc2ccccc12 [Example 1114] , state its recorded pIC50.
Given back: > 7.30

====

Recorded measurements of IC50, one per entry
molecular target: MCH receptor (Homo sapiens, UniProt Q99705); test: High throughput functional screening FLIPR/FDSS6000: inhibition of MCH-evoked intracellular Ca2+ changes; assay type: cell-based; settings: class by percent of control at 10^−7 M or by IC50; read-out: class

Below, each entry is followed by its recorded IC50 result.
Compound | Target Of Assay | Value Reported
CN(C)c1nc(N[C@H]2CC[C@@H](C(=O)NCc3c(F)ccc(F)c3F)CC2)nc2ccccc12 [Example 1172] | MCH receptor (Homo sapiens, UniProt Q99705) | < 50 nM
CN(C)c1nc(N[C@H]2CC[C@@H](NC(=O)C(O)c3c(F)cccc3F)CC2)nc2ccccc12 (relative stereo) [Example 1110] | MCH receptor (Homo sapiens, UniProt Q99705) | > 200 nM
CN(C)c1nc(N[C@H]2CC[C@@H](CNC(=O)[C@H](O)c3ccccc3)CC2)nc2ccccc12 [Example 1102] | MCH receptor (Homo sapiens, UniProt Q99705) | > 200 nM
CN(C)c1nc(N[C@H]2CC[C@@H](NC(=O)c3ccc(Oc4cc(F)cc(F)c4)nc3)CC2)nc2ccccc12 [Example 1063] | MCH receptor (Homo sapiens, UniProt Q99705) | > 200 nM

Asked: Given CC(C)CC(=O)Nc1cccc(C(=O)N[C@H]2CC[C@@H](Nc3nc(N(C)C)c4ccccc4n3)CC2)c1 [Example 1201] , state its recorded IC50.
Given back: 50 to 200 nM

Asked: Also need CN(C)c1nc(N[C@H]2CC[C@@H](C(=O)NCc3c(F)cccc3Cl)CC2)nc2ccccc12 [Example 1179] , thanks.
Given back: < 50 nM

Asked: Also need CN(C)c1nc(N[C@H]2CC[C@@H](C(=O)NCc3ccc(F)c(C(F)(F)F)c3)CC2)nc2ccccc12 [Example 1176] , thanks.
Given back: < 50 nM

Asked: Also need CN(C)c1nc(N[C@H]2CC[C@@H](CNC(=O)c3cccc(Cl)c3)C2)nc2ccccc12 [Example 1122] , thanks.
Given back: < 50 nM

Asked: Also need CN(C)c1nc(N[C@H]2CC[C@@H](C(=O)Nc3cccnc3Cl)CC2)nc2ccccc12 [Example 1197] , thanks.
Given back: > 200 nM

Asked: Also need Cc1ccc(OCC(=O)N[C@H]2CC[C@@H](Nc3nc(N(C)C)c4ccccc4n3)CC2)cc1C [Example 1076] , thanks.
Given back: > 200 nM

Asked: Also need CN(C)c1nc(N[C@H]2CC[C@@H](NC(=O)C(O)c3cc(F)ccc3F)CC2)nc2ccccc12 (relative stereo) [Example 1115] , thanks.
Given back: 50 to 200 nM

Asked: Also need CN(C)c1nc(N[C@H]2CC[C@@H](NC(=O)c3cccnc3Oc3ccc(F)c(F)c3)CC2)nc2ccccc12 [Example 1038] , thanks.
Given back: < 50 nM

====

Target: UniProt:Q99705
Assay: High throughput functional screening FLIPR/FDSS6000: inhibition of MCH-evoked intracellular Ca2+ changes
Type: cell-based
Conditions: class by percent of control at 10^-7 M or by IC50; read-out: class
Description: Subsequently, a functional based assay was used to confirm the lead hits, referred to as FLIPR™ (the Fluorometric Imaging Plate Reader) and FDSS6000™ (Functional Drug Screening System). […] Fluorometric Imaging Plate Reader system was used to allow for rapid, kinetic measurements of intracellular fluorescence in 96 well microplates (or 384 well microplates). Simultaneous measurements of fluorescence in all wells can be made by FLIPR or FDSS6000™ every second with high sensitivity and precision. […]
pIC50: −log10 of the molar value.
Recorded measurements of pIC50, one per entry

Smiles String | Measured Endpoint | Value Reported
CCOC(=O)c1ccc(NC(=O)N[C@H]2CC[C@@H](Nc3nc(N(C)C)c4ccccc4n3)CC2)cc1 | pIC50 | 6.70 to 7.30
CN(C)c1nc(N[C@H]2CC[C@@H](NC(=O)Nc3ccccc3OC(F)F)CC2)nc2ccccc12 | pIC50 | < 6.70
CC(=O)c1ccc(NC(=S)N[C@H]2CC[C@@H](Nc3nc(N(C)C)c4ccccc4n3)CC2)cc1 | pIC50 | < 6.70
CN(C)c1nc(N[C@H]2CC[C@@H](NC(=S)Nc3ccccc3Br)CC2)nc2ccccc12 | pIC50 | < 6.70
CN(C)c1nc(N[C@H]2CC[C@@H](NC(=O)OCC(Cl)(Cl)Cl)CC2)nc2ccccc12 | pIC50 | < 6.70

Asked: Given CN(C)c1nc(N[C@H]2CC[C@@H](CNC(=S)NCC3CC3)CC2)nc2ccccc12 , state its recorded pIC50.
Given back: 6.70 to 7.30

Asked: Also need COc1ccccc1OC(=O)NC[C@H]1CC[C@@H](Nc2nc(N(C)C)c3ccccc3n2)CC1 , thanks.
Given back: < 6.70

====

target: MCH receptor (Homo sapiens); test: High throughput functional screening FLIPR/FDSS6000: inhibition of MCH-evoked intracellular Ca2+ changes; type: cell-based; settings: class by percent of control at 10^-7 M or by IC50; read-out: class
Measured Endpoint: IC50

Compound | IC50
CN(C)c1nc(N[C@H]2CC[C@@H](NC(=S)NCC3CCCO3)CC2)nc2ccccc12 (relative stereo) [compound 196] | > 200 nM

Asked: Short answer please: IC50, MCH receptor (Homo sapiens), entry CC(NC(=O)N[C@H]1CC[C@@H](Nc2nc(N(C)C)c3ccccc3n2)CC1)c1cccc2ccccc12 (stereo partly drawn) [compound 61]
Given back: < 50 nM

Asked: Also need Cc1c(Cl)cccc1NC(=O)N[C@H]1CC[C@@H](Nc2nc(N(C)C)c3ccccc3n2)CC1 [compound 129] , thanks.
Given back: < 50 nM

Asked: Also need CCCCNC(=S)N[C@H]1CC[C@@H](Nc2nc(N(C)C)c3ccccc3n2)CC1 [compound 159] , thanks.
Given back: > 200 nM

Asked: Also need CN(C)c1nc(N[C@H]2CC[C@@H](NC(=S)Nc3cccc(C(F)(F)F)c3)CC2)nc2ccccc12 [compound 194] , thanks.
Given back: > 200 nM

Asked: Also need CN(C)c1nc(N[C@H]2CC[C@@H](CNC(=S)Nc3ccc(/N=N/c4ccccc4)cc3)CC2)nc2ccccc12 [compound 812] , thanks.
Given back: > 200 nM

Asked: Also need CN(C)c1nc(N[C@H]2CC[C@@H](NC(=O)Nc3ccc(Br)cc3Cl)CC2)nc2ccccc12 [compound 143] , thanks.
Given back: > 200 nM

Asked: Also need CN(C)c1nc(N[C@H]2CC[C@@H](NC(=S)Nc3ccc(Cl)cc3)CC2)nc2ccccc12 [compound 164] , thanks.
Given back: 50 to 200 nM

Asked: Also need CCNC(=O)N[C@H]1CC[C@@H](Nc2nc(N(C)C)c3ccccc3n2)CC1 [compound 32] , thanks.
Given back: > 200 nM

Asked: Also need CN(C)c1nc(N[C@H]2CC[C@@H](NC(=O)NCc3ccc(F)cc3)CC2)nc2ccccc12 [compound 824] , thanks.
Given back: < 50 nM

Asked: Also need CN(C)c1nc(N[C@H]2CC[C@@H](NC(=S)Nc3ccc([N+](=O)[O-])cc3)CC2)nc2ccccc12 [compound 189] , thanks.
Given back: 50 to 200 nM

Asked: Also need CN(C)c1nc(N[C@H]2CC[C@@H](CNC(=O)OCC(C)(C)C)CC2)nc2ccccc12 [compound 867] , thanks.
Given back: > 200 nM
